# assay_explanation: gradient 5% acetonitrile 3 min, to 50% in 2 min, to 85% in 15 min, held 3 min, 100 µL/min
# measurement_setup: column: Zorbax Extend-C18 2.1 x 50 mm; eluents: water / acetonitrile, 0.1% formic acid
measurement_name: RP-LC retention time (s)

> print(dat)
                                   compound  test.result
1  Cc1c(Cl)cccc1NC(=O)NC1CCN(c2ccc(F)cc2)C1=O (stereo unspecified)          864

(A) O=C(Cc1nnc(-c2ccc3ncccc3c2)o1)NCc1ccc(F)cc1
(B) O=C(Nc1ccc(N2CCN(c3ccccc3)C2=O)nc1)c1cc(F)cc(F)c1
Query: // pick larger RP-LC retention time from pair: A vs B // return label of chosen record
Reply: B
(B: 1020 s, A: 677 s)
